- EXPERIMENTAL_TARGET: recombinant human GREM1 (hGREM1-His; C-terminal 10His tagged, R&D, #5190-GR) (human) (UniProt O60565)
- Sequence (O60565 other isoform, or with tags, fused parts or gaps limits assumed, form in doubt): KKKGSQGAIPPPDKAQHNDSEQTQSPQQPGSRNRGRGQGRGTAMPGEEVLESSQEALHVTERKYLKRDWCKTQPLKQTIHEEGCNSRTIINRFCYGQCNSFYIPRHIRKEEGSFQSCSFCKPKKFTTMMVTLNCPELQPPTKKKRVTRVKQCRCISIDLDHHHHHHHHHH
- EXPERIMENT_DESCRIPTION: BLI Octet, captured mAb, 100 nM GREM1
EXPERIMENTAL_READOUT: Binding Signal with 300 sec Association (nm)
Answer format: numeric, nm implied, no suffix.

Task item: Find the recorded Binding Signal with 300 sec Association (nm) belonging to H4H6252P (antibody, human IgG4, V domains shown) VH: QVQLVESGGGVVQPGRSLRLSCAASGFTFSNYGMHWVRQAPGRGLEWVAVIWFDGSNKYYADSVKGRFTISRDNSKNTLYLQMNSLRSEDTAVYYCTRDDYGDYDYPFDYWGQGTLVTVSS VL: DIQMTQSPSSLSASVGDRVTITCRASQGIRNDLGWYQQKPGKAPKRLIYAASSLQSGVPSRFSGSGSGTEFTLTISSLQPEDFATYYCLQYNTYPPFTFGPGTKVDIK and report it.
Reply: 0.44

Task item: Find the recorded Binding Signal with 300 sec Association (nm) belonging to H4H6251P (antibody, human IgG4, V domains shown) VH: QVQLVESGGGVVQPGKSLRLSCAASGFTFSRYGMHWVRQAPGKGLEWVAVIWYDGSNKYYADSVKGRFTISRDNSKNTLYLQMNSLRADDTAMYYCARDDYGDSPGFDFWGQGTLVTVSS VL: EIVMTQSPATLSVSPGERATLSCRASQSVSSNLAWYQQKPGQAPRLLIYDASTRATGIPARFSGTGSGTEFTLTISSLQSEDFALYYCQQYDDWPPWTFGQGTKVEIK and report it.
Reply: 0.45

Task item: Find the recorded Binding Signal with 300 sec Association (nm) belonging to H4H6232P (antibody, human IgG4, V domains shown) VH: QVQLVQSGAEVKKPGASVKVSCKVSGYTLTELSMHWVRQAPGKGLEWMGGFDPEDGETIYAQKFQGRLTMTEDTSTDTAYMELSSLRSEDTAVYYCATDDYDILTSYPYNMDVWGQGTTVTVSS VL: DIQMTQSPSSLSASVGDRVTITCRASQSINNYLNWYQQKPGKAPKLLIYAASSLQSGVPSRFSGSGSGTDFTLTISSLQPEDFGTYYCQQSDSTPFTFGPGTKVDIK and report it.
Reply: 0.48
